// provenance: ChEMBL document CHEMBL1157561

pIC50: −log10 of the molar value.
Please consider the recorded pIC50 for Vascular endothelial growth factor receptor 3 (Homo sapiens) in what follows.

{"columns": ["ENTRY SMILES", "STUDY SYSTEM", "READOUT TYPE", "MEASURED VALUE"],
 "data": [
  ["CC(=O)N1CCC(Nc2ncc3c(n2)-c2c(c(C(N)=O)nn2C)CC3)CC1", "Vascular endothelial growth factor receptor 3 (Homo sapiens)", "pIC50", "< 5.00"]
]}

Would you kindly look at the next entry?
Looking for the measured pIC50 of Cn1nc(C(N)=O)c2c1-c1nc(NC3CCN(C(=O)c4ccccc4)CC3)ncc1CC2 , can you help?
< 5.00

====

This section presents molecules with their documented pIC50 values.
- STUDY SYSTEM: Cyclin-dependent kinase 2/cyclin A (Homo sapiens)
- METHOD: Inhibition of CDK2/Cyclin A
Conceptually, pIC50 converts a concentration in mol/L into minus its log10.

{"columns": ["ENTRY SMILES", "STUDY SYSTEM", "pIC50"],
 "data": [
  ["NC(=O)c1nn(-c2ccccc2)c2c1CCc1cnc(NC3CCCC3)nc1-2", "Cyclin-dependent kinase 2/cyclin A (Homo sapiens)", 7.70],
  ["CN1CCC(Nc2ncc3c(n2)-c2c(c(C(N)=O)nn2C)CC3)CC1", "Cyclin-dependent kinase 2/cyclin A (Homo sapiens)", 6.45],
  ["NC(=O)c1nn(-c2ccccn2)c2c1CCc1cnc(NC3CCCC3)nc1-2", "Cyclin-dependent kinase 2/cyclin A (Homo sapiens)", 7.28]
]}

Please tell me: pIC50 of CC(=O)N1CCC(Nc2ncc3c(n2)-c2c(c(C(N)=O)nn2C)CC3)CC1 , system Cyclin-dependent kinase 2/cyclin A (Homo sapiens)?
8.70

Another molecule to check: CN1CCC(n2nc(C(N)=O)c3c2-c2nc(NC4CCCC4)ncc2CC3)CC1
8.22

====

This section presents compounds with their documented pIC50 values.
- System: A2780
- METHOD: Antiproliferative activity against human A2780 cells after 72 hrs by cell-titer-glo assay
- Type: functional, cell-based
- CONDITION NOTES: A2780, 72 h
pIC50: −log10 of the molar value.

Worked cases, pIC50 given:
{"columns": ["COMPOUND", "STUDY SYSTEM", "pIC50"],
 "data": [
  ["CNC(=O)c1nn(C)c2c1CCc1cnc(NC3CCN(C)CC3)nc1-2", "A2780", "< 5.00"],
  ["CC(CN(C)C)NC(=O)c1nn(C)c2c1CCc1cnc(NC3CCCC3)nc1-2 (stereo not drawn)", "A2780", "< 5.00"],
  ["CNC(=O)c1nn(C)c2c1CCc1cnc(NC3CCN(C(=O)N4CCN(C)CC4)CC3)nc1-2", "A2780", "< 5.00"],
  ["CNC(=O)c1nn(C)c2c1CCc1cnc(NC3CCCC3)nc1-2", "A2780", "< 5.00"],
  ["CNC(=O)c1nn(C)c2c1CCc1cnc(NC3CCN(C(C)=O)CC3)nc1-2", "A2780", "< 5.00"]
]}

Looking for the measured pIC50 of Cn1nc(C(N)=O)c2c1-c1nc(NCc3ccc(Br)cc3)ncc1CC2 , can you help?
6.25

Another compound to check: NC(=O)c1nn(-c2ccccn2)c2c1CCc1cnc(NC3CCCC3)nc1-2
5.66

Another compound to check: CN1CCN(c2ccc(CNc3ncc4c(n3)-c3c(c(C(N)=O)nn3C)CC4)cc2)CC1
5.80
